Target: T1, canine OX40L, full length membrane form, expressed on HEK293 cells (canine)
T1 chain: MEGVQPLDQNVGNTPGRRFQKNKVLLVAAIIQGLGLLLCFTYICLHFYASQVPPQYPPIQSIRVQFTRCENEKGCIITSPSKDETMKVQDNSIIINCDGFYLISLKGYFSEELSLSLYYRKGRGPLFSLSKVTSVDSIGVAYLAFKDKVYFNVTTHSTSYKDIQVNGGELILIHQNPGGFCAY
Experiment: cell-based or functional assay
property: % Signal Inhibition Rep2 (%)
Please reply with the bare figure in % and do not write the unit itself.

Sample records with % Signal Inhibition Rep2:
• PMX053 (antibody, V domains shown, also called PMX53) VH: EVQLVESGGDLVKPAGSLRLSCVASGFTFSSYSMSWVRQAPEKGLQLVAGINSAGSSTYYTDAVKGRFTISRDNAKNTVYLQMNSLRAEDTAIYYCAKRWVFDYWGQGTLVTVSS VL: DIVMTQTPLSLSVSPGEPASISCKASQSLPHSLGNTYLYWFRQKPGQSPQRLIYKVSNRDPGVPDRFSGSGSGTDFTLRISRVEADDAGIYYCGQGIQDPFTFGQGTKLEIK = 45.8
• PMX095 (antibody, V domains shown) VH: AVQLVESGGDLVRPGGSLRLSCVASGFTFSSYHMNWVRQAPGKGLQWVAFINSGGSSTTYADVVRGRFTISRDYAKNTLFLQMNSLRAEDTAVYYCAIGSIWTHFDYWGQGTLVTVSS VL: SFVLTQLPSVSVTLRQTARITCGGDIIGSKNVYWYQQRLGQAPVLILYRDTNRPTGIPERFSGASSGNTATLTISGALAEDEADYYCQVWDNSNKAMFGGGTHLTVL = 52.6

# next binder below
Find the recorded % Signal Inhibition Rep2 belonging to PMX060 (antibody, V domains shown, also called PMX60) VH: EVQLVESGGDLMKPGGSLRLSCVASGFTFSSFPMSWVRQAPGKGLQWVAYIHSGGSSTSYADAVKGRFTISRDNAKNTLYLQMNSLRAEDTAIYYCARTFPTVAADNWFYYWGQGTLVTVSS VL: SYVLTQLPSKNVTLKQAAHITCGGDNIGSKSVHWYQQKLGQAPVLIIYYDSSRPTGIPERFSGANSGNTATLTISGALAEDEADYYCQVWDSSAKWVFGEGTQLTVL and report it.
68.4
